Where do these numbers come from? They come from patent US11230581B2.

TARGET DESC: HLA-A*02:01 (Homo sapiens, UniProt P04439, D140Y/D185E/D98H/E176V/E277Q/G131W/G231S/I119V/I121R/I166T/I218V/L300P/L318F/N151K/N90K/P208A/P217A/Q86G/Q94H/R138H/R169H/T345S)
METHOD NOTES: MHC binding assay (UV-ligand exchange, β2m ELISA, peptide exchange yield)
MEASUREMENT CONTEXT: binding of HLA-class I restricted peptides to HLA-A*02:01, UV-ligand exchange
ASSAY READOUT: Peptide exchange (MHC class I binding score, peptide exchange yield)

As a guide, the following entries are already answered.
INSERT INTO assay_data (substance, reported_result) VALUES
  ('21 (VLDELDMEL; listed as Homo sapiens) [compound 21]', '“++” (≥20% = ++)'),
  ('46 (ILTEENIHL; listed as Homo sapiens) [compound 46]', '“+++” (≥50 = +++)'),
  ('336 (ILLTAIVQV; listed as Homo sapiens) [compound 336]', '“+++” (≥50 = +++)'),
  ('225 (SLLKVLPAL; listed as Homo sapiens) [compound 225]', '“+++” (≥50 = +++)'),
  ('366 (RLLDMGETDLML; listed as Homo sapiens) [compound 366]', '“+++” (≥50 = +++)'),
  ('194 (ALPLFVITV; listed as Homo sapiens) [compound 194]', '“+++” (≥50 = +++)');

Now, please, on to the next substance.
Input line: Please supply the value of reported Peptide exchange (MHC class I binding score, peptide exchange yield) for the item 458 (SLIDKLYNI; listed as Homo sapiens) [compound 458]
Output line: “++” (≥20% = ++)

----------
TARGET DESC: HLA-A*02:01 (Homo sapiens, UniProt P04439, D140Y/D185E/D98H/E176V/E277Q/G131W/G231S/I119V/I121R/I166T/I218V/L300P/L318F/N151K/N90K/P208A/P217A/Q86G/Q94H/R138H/R169H/T345S)
METHOD NOTES: MHC binding assay (UV-ligand exchange, β2m ELISA, peptide exchange yield)
MEASUREMENT CONTEXT: binding of HLA-class I restricted peptides to HLA-A*02:01, UV-ligand exchange
Source text: Candidate peptides for T cell based therapies according to the present invention were further tested for their MHC binding capacity (affinity). The individual peptide-MHC complexes were produced by UV-ligand exchange, where a UV-sensitive peptide is cleaved upon UV-irradiation, and exchanged with the peptide of interest as analyzed. Only peptide candidates that can effectively bind and stabilize the peptide-receptive MHC molecules prevent dissociation of the MHC complexes. […]
ASSAY READOUT: Peptide exchange (MHC class I binding score, peptide exchange yield)

As a guide, the following entries are already answered.
INSERT INTO assay_data (substance, reported_result) VALUES
  ('211 (LLWPGAALL; listed as Homo sapiens) [compound 211]', '“++” (≥20% = ++)'),
  ('622 (RLLGEEVVRVLQA; listed as Homo sapiens) [compound 622]', '“+++” (≥50 = +++)'),
  ('495 (FIFSEKPVFV; listed as Homo sapiens) [compound 495]', '“+++” (≥50 = +++)'),
  ('114 (SLVGEPILQNV; listed as Homo sapiens) [compound 114]', '“++” (≥20% = ++)'),
  ('402 (VLFSGALLGL; listed as Homo sapiens) [compound 402]', '“++” (≥20% = ++)'),
  ('603 (FLIEPEHVNTV; listed as Homo sapiens) [compound 603]', '“++” (≥20% = ++)'),
  ('80 (FLYDNLVESL; listed as Homo sapiens) [compound 80]', '“++” (≥20% = ++)'),
  ('506 (KLLGKVETA; listed as Homo sapiens) [compound 506]', '“+++” (≥50 = +++)');

# batch: return Peptide exchange (MHC class I binding score, peptide exchange yield) for each of the 3 substances below
1. 635 (SLDSTLHAV; listed as Homo sapiens) [compound 635]
2. 141 (YLDFSNNRL; listed as Homo sapiens) [compound 141]
3. 318 (GLINTGVLSV; listed as Homo sapiens) [compound 318]

Output line:
["“+++” (≥50 = +++)", "“++” (≥20% = ++)", "“++” (≥20% = ++)"]

----------
TARGET DESC: HLA-A*02:01 (Homo sapiens, UniProt P04439, D140Y/D185E/D98H/E176V/E277Q/G131W/G231S/I119V/I121R/I166T/I218V/L300P/L318F/N151K/N90K/P208A/P217A/Q86G/Q94H/R138H/R169H/T345S)
METHOD NOTES: MHC binding assay (UV-ligand exchange, β2m ELISA, peptide exchange yield)
MEASUREMENT CONTEXT: binding of HLA-class I restricted peptides to HLA-A*02:01, UV-ligand exchange
ASSAY READOUT: Peptide exchange (MHC class I binding score, peptide exchange yield)

As a guide, the following entries are already answered.
INSERT INTO results (substance, reported_result) VALUES
  ('2 (SLLEADPFL; listed as Homo sapiens) [compound 2]', '“+++” (≥50 = +++)'),
  ('298 (VMITKLVEV; listed as Homo sapiens) [compound 298]', '“+++” (≥50 = +++)'),
  ('337 (HLLSELEAAPYL; listed as Homo sapiens) [compound 337]', '“++++” (≥75% = ++++)'),
  ('83 (ILAPTVMMI; listed as Homo sapiens) [compound 83]', '“+++” (≥50 = +++)'),
  ('426 (RLADKSVLV; listed as Homo sapiens) [compound 426]', '“+++” (≥50 = +++)');

# batch: return Peptide exchange (MHC class I binding score, peptide exchange yield) for each of the 7 substances below
1. 127 (KIGDEPPKV; listed as Homo sapiens) [compound 127]
2. 226 (MLYVVPIYL; listed as Homo sapiens) [compound 226]
3. 244 (SLFGGTEITI; listed as Homo sapiens) [compound 244]
4. 562 (YLEELPEKLKL; listed as Homo sapiens) [compound 562]
5. 158 (KLFDVDEDGYI; listed as Homo sapiens) [compound 158]
6. 223 (ALLENIALYL; listed as Homo sapiens) [compound 223]
7. 219 (KLSDIGITV; listed as Homo sapiens) [compound 219]

Output line:
“++” (≥20% = ++)
“++” (≥20% = ++)
“+++” (≥50 = +++)
“+++” (≥50 = +++)
“+++” (≥50 = +++)
“+++” (≥50 = +++)
“+++” (≥50 = +++)

----------
TARGET DESC: HLA-A*02:01 (Homo sapiens, UniProt P04439, D140Y/D185E/D98H/E176V/E277Q/G131W/G231S/I119V/I121R/I166T/I218V/L300P/L318F/N151K/N90K/P208A/P217A/Q86G/Q94H/R138H/R169H/T345S)
METHOD NOTES: MHC binding assay (UV-ligand exchange, β2m ELISA, peptide exchange yield)
MEASUREMENT CONTEXT: binding of HLA-class I restricted peptides to HLA-A*02:01, UV-ligand exchange
Description: Candidate peptides for T cell based therapies according to the present invention were further tested for their MHC binding capacity (affinity). The individual peptide-MHC complexes were produced by UV-ligand exchange, where a UV-sensitive peptide is cleaved upon UV-irradiation, and exchanged with the peptide of interest as analyzed. Only peptide candidates that can effectively bind and stabilize the peptide-receptive MHC molecules prevent dissociation of the MHC complexes. […]
ASSAY READOUT: Peptide exchange (MHC class I binding score, peptide exchange yield)

As a guide, the following entries are already answered.
INSERT INTO results (substance, reported_result) VALUES
  ('586 (KLKPGDLVGV; listed as Homo sapiens) [compound 586]', '“+++” (≥50 = +++)'),
  ('452 (ILLEHGADPNL; listed as Homo sapiens) [compound 452]', '“+++” (≥50 = +++)'),
  ('304 (MTLGQIYYL; listed as Homo sapiens) [compound 304]', '“+++” (≥50 = +++)'),
  ('267 (ALQDFLLSV; listed as Homo sapiens) [compound 267]', '“+++” (≥50 = +++)'),
  ('265 (LLFGGTKTV; listed as Homo sapiens) [compound 265]', '“++” (≥20% = ++)'),
  ('10 (FLATFPLAAV; listed as Homo sapiens) [compound 10]', '“++++” (≥75% = ++++)'),
  ('583 (ILANDGVLLAA; listed as Homo sapiens) [compound 583]', '“+++” (≥50 = +++)'),
  ('319 (SLEPQIQPV; listed as Homo sapiens) [compound 319]', '“++” (≥20% = ++)'),
  ('529 (LLADELITV; listed as Homo sapiens) [compound 529]', '“+++” (≥50 = +++)'),
  ('468 (YLRSVGDGETV; listed as Homo sapiens) [compound 468]', '“+++” (≥50 = +++)');

# batch: return Peptide exchange (MHC class I binding score, peptide exchange yield) for each of the 6 substances below
1. 602 (YLLEQIKLIEV; listed as Homo sapiens) [compound 602]
2. 376 (AMFESSQNVLL; listed as Homo sapiens) [compound 376]
3. 361 (ALYELEGTTV; listed as Homo sapiens) [compound 361]
4. 492 (SLFDGFADGLGV; listed as Homo sapiens) [compound 492]
5. 494 (ALQPEPIKV; listed as Homo sapiens) [compound 494]
6. 25 (FLPDEPYIKV; listed as Homo sapiens) [compound 25]

Output line:
1: “++++” (≥75% = ++++); 2: “++” (≥20% = ++); 3: “+++” (≥50 = +++); 4: “+++” (≥50 = +++); 5: “++” (≥20% = ++); 6: “+++” (≥50 = +++)

# batch: return Peptide exchange (MHC class I binding score, peptide exchange yield) for each of the 6 substances below
1. 282 (LLADVVPTT; listed as Homo sapiens) [compound 282]
2. 217 (ALIHPVSTV; listed as Homo sapiens) [compound 217]
3. 579 (NLMEMVAQL; listed as Homo sapiens) [compound 579]
4. 560 (ALWDIETGQQTTT; listed as Homo sapiens) [compound 560]
5. 44 (ILDPISSGFLL; listed as Homo sapiens) [compound 44]
6. 460 (AMLEKNYKL; listed as Homo sapiens) [compound 460]

Output line:
1. “+++” (≥50 = +++)
2. “++” (≥20% = ++)
3. “++” (≥20% = ++)
4. “+++” (≥50 = +++)
5. “++” (≥20% = ++)
6. “++++” (≥75% = ++++)

# batch: return Peptide exchange (MHC class I binding score, peptide exchange yield) for each of the 3 substances below
1. 351 (SLIPNLRNV; listed as Homo sapiens) [compound 351]
2. 545 (LLADLLHNV; listed as Homo sapiens) [compound 545]
3. 373 (SLLEDKGLAEV; listed as Homo sapiens) [compound 373]

Output line:
["“+++” (≥50 = +++)", "“+++” (≥50 = +++)", "“++” (≥20% = ++)"]
